Tested system: MCL-1ΔNΔC (Homo sapiens, UniProt Q07820)
Sequence (Q07820 172-320 limits assumed, stated change not applied): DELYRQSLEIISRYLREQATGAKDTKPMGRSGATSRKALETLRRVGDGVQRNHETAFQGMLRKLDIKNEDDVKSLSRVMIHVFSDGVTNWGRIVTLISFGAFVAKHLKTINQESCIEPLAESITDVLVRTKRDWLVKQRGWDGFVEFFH
Assay summary: High-throughput competitive FP binding screen, FITC-MCL-1 SAHB/MCL-1ΔNΔC interaction
Set-up: the C-terminal alpha-helix was deleted from each of these constructs; GST (N, cleaved yes); made in house
Stated conditions: FITC-MCL-1 SAHB/MCL-1ΔNΔC interaction pair, competitive FP screen
Hi! Just check whether MCL-1% Bound is below 40%. Below gives T, equal or above gives F.

| Molecule | Tested system | Class name |
| --- | --- | --- |
| CC1CCN(C2=NN3C(=N)C(Cc4ccc(SCc5ccco5)o4)C(=O)N=C3S2)CC1 (stereo not drawn) | MCL-1ΔNΔC (Homo sapiens, UniProt Q07820) | T |
| Cc1ccc2c(CC(=O)NCC(=O)OCc3ccccc3)coc2c1 | MCL-1ΔNΔC (Homo sapiens, UniProt Q07820) | T |
| [Na+].[Na+].[O-]c1c(Cl)cc(Cl)cc1Sc1cc(Cl)cc(Cl)c1[O-] | MCL-1ΔNΔC (Homo sapiens, UniProt Q07820) | T |

Bench note: check whether "O=C1N/C(=N/c2ccccc2)S/C1=C/C=C/c1ccco1" shows MCL-1% Bound below 40%
F

Bench note: check whether "Oc1ccc2cc3c4cc(Br)ccc4nc-3oc2c1O" shows MCL-1% Bound below 40%
T

----------
Tested system: BCL-XLΔC (Homo sapiens, UniProt Q07817)
Sequence (Q07817 1-212 limits assumed, stated change not applied): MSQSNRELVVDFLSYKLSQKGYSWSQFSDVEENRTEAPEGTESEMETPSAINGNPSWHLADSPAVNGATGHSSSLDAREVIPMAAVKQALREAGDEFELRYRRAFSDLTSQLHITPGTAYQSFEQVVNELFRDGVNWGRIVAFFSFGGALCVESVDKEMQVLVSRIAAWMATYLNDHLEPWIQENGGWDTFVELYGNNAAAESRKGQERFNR
Assay summary: High-throughput competitive FP binding screen, FITC-BAD BH3/BCL-XLΔC interaction
Stated conditions: FITC-BAD BH3/BCL-XLΔC interaction pair, competitive FP screen
Parameter BCL-XL % Bound: see the listing below.
Write the answer as a number in %, unit excluded.

| Compound | Result type | Reading |
| --- | --- | --- |
| Cc1ccc(CCNC(=O)c2ccc3nc(-c4ccco4)c(-c4ccco4)nc3c2)cc1 | BCL-XL % Bound | 99.74 |
| Oc1c(C(c2cccs2)N2CCCCC2)ccc2cccnc12 (centres unmarked) | BCL-XL % Bound | 115.2 |
| CNc1sc(C(=O)c2cccs2)c(N)c1-c1nc2ccccc2s1 | BCL-XL % Bound | 92.47 |
| O=S(=O)(NNc1cnc2ccccc2n1)c1ccccc1C(F)(F)F | BCL-XL % Bound | 112.4 |

Now consider the entry below.
// returns reported BCL-XL % Bound for input O=c1c(O)c(-c2ccc(O)c(O)c2)oc2cc(O)cc(O)c12 [drawing 172]
92.49

----------
Parameter BCL-XL % Bound: see the listing below.
Tested system: BCL-XLΔC (Homo sapiens, UniProt Q07817)
Assay summary: High-throughput competitive FP binding screen, FITC-BAD BH3/BCL-XLΔC interaction
Stated conditions: FITC-BAD BH3/BCL-XLΔC interaction pair, competitive FP screen
Write the answer as a number in %, unit excluded.

// returns reported BCL-XL % Bound for input "CCOc1cccc(/C=N/n2c(S)nnc2-c2ccc(Cl)cc2)c1O"
96.58

// returns reported BCL-XL % Bound for input CC(C)C(C(=O)O)N1C(=O)/C(=C/C=C/c2ccco2)SC1=S (centres unmarked)
102.8

// returns reported BCL-XL % Bound for input "CS(=O)(=O)C1=NN2C(=N)/C(=C\c3ccc(-c4ccc(Cl)cc4)o3)C(=O)N=C2S1"
82.61

// returns reported BCL-XL % Bound for input COc1ccc2c(c1)CC[C@@H]1C2CC[C@@]2(C)C1CC[C@@H]2NCCCCCCN1C(=O)CCC1=O (some centres unmarked) [drawing 18]
106.3

// returns reported BCL-XL % Bound for input O=c1cc(-c2ccccc2)oc2cc(O)c(O)c(O)c12 [drawing 19]
104.2

// returns reported BCL-XL % Bound for input CCCCSC1=C(C#N)C(=O)NC(c2ccc(OC)cc2)S1 (centres unmarked)
99.33

// returns reported BCL-XL % Bound for input "O=C(CSc1nnc(C2CC2)n1Cc1ccco1)c1cccc(Cl)c1"
98.2
